Provenance of the data: ChEMBL document CHEMBL2218924

Give measured residual activity for each item. Keep answers brief.
target: Aurora kinase B (Homo sapiens) (UniProt Q96GD4); conditions: at 1 µM
Sequence (Q96GD4 whole entry): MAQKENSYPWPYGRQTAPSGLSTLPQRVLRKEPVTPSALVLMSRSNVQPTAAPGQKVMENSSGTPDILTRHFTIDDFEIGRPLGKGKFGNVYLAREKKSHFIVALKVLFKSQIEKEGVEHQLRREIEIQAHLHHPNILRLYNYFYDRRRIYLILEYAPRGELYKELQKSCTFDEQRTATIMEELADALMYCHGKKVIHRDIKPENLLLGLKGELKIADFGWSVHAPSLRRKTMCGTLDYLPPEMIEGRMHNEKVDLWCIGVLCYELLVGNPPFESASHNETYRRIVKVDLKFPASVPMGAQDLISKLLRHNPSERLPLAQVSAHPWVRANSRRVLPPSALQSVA
Answers are plain numbers, in %.

compound | residual activity / %
CNc1cc2c(Nc3cccc(Br)c3)ncnc2cn1 | 43

Please supply residual activity for each of the following items, keeping them in order.
1. O=C1NC(=O)/C(=C/c2ccc3c(c2)OC(F)(F)O3)S1
2. NC(=O)c1ccc2[nH]c(-c3ccc(Oc4ccc(Cl)cc4)cc3)nc2c1
3. COc1cc2ncnc(N3CCN(C(=O)Nc4ccc(Oc5ccccc5)cc4)CC3)c2cc1OC
4. O=C1c2ccccc2-[n+]2ccc3c([nH]c4ccccc43)c21
5. O=C(Nc1cccc(Nc2nccc(Nc3cccc(C(F)(F)F)c3)n2)c1)C1CC1
6. Oc1ccc(-c2nc(-c3ccc(F)cc3)c(-c3ccncc3)[nH]2)cc1
7. O=C(Nc1cccc(Nc2cc(Nc3cccc(C(F)(F)F)c3)ncn2)c1)C1CC1
8. Oc1n[nH]c2nnc(-c3c(-c4ccccc4)nn4ccccc34)cc12

1: 74; 2: 68; 3: 15; 4: 93; 5: 1; 6: 69; 7: 68; 8: 5

====

target: Receptor-interacting serine/threonine-protein kinase 2 (Homo sapiens) (UniProt O43353); conditions: at 1 µM
Sequence (O43353 whole entry): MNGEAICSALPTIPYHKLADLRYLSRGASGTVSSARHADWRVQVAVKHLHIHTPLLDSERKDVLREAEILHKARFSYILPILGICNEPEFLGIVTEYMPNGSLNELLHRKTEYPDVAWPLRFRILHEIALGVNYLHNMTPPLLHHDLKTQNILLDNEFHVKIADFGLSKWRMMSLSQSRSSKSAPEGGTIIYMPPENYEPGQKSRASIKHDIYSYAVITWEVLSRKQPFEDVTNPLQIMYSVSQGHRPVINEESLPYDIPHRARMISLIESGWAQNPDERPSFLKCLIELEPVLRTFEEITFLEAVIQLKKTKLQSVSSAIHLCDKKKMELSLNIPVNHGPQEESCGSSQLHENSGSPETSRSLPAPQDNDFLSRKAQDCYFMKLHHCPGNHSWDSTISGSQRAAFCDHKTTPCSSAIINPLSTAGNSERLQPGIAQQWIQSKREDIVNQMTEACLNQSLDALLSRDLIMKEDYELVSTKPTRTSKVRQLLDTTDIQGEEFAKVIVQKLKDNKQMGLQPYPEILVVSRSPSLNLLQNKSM
Description: Millipore: Percentage of residual kinase activity of RIPK2 at 1uM relative to control. Control inhibitor: Phosphoric acid* at 0.3uM. Buffer: 8 mM MOPS pH 7.0, 0.2 mM EDTA
Recorded residual activity determines the label; the label ranges are interval 1: < 70%; interval 2: ≥ 70% and < 90%; interval 3: ≥ 90%

Solved entries (count: 2):
compound | system_name | answer_label
O=C1NC(=O)/C(=C\c2ccc3nccnc3c2)S1 | Receptor-interacting serine/threonine-protein kinase 2 (Homo sapiens) (UniProt O43353) | interval 1
CCN(CC)C(=O)c1ccc(Nc2nc(OCC3CCCCC3)c3nc[nH]c3n2)cc1 | Receptor-interacting serine/threonine-protein kinase 2 (Homo sapiens) (UniProt O43353) | interval 2

Input "CC[n+]1c(/C=C/N(C)c2ccccc2)n(-c2ccccc2)c2ccc(-c3nc4ccccc4s3)cc21" ; output its category
interval 3

Input "Oc1ccc(Nc2nc(-c3ccc(Cl)cc3)cs2)cc1" ; output its category
interval 3

Input "N#CCCc1ccc2c(c1)-c1[nH]c3ccc([N+](=O)[O-])cc3c1CC(=O)N2" ; output its category
interval 1

Input "c1ccc(-c2n[nH]c3c2oc2ccccc23)cc1" ; output its category
interval 3

====

Give measured residual activity for each item. Keep answers brief.
molecular target: Ephrin type-B receptor 3 (Homo sapiens) (UniProt P54753); details: at 10 µM
Sequence (P54753 whole entry): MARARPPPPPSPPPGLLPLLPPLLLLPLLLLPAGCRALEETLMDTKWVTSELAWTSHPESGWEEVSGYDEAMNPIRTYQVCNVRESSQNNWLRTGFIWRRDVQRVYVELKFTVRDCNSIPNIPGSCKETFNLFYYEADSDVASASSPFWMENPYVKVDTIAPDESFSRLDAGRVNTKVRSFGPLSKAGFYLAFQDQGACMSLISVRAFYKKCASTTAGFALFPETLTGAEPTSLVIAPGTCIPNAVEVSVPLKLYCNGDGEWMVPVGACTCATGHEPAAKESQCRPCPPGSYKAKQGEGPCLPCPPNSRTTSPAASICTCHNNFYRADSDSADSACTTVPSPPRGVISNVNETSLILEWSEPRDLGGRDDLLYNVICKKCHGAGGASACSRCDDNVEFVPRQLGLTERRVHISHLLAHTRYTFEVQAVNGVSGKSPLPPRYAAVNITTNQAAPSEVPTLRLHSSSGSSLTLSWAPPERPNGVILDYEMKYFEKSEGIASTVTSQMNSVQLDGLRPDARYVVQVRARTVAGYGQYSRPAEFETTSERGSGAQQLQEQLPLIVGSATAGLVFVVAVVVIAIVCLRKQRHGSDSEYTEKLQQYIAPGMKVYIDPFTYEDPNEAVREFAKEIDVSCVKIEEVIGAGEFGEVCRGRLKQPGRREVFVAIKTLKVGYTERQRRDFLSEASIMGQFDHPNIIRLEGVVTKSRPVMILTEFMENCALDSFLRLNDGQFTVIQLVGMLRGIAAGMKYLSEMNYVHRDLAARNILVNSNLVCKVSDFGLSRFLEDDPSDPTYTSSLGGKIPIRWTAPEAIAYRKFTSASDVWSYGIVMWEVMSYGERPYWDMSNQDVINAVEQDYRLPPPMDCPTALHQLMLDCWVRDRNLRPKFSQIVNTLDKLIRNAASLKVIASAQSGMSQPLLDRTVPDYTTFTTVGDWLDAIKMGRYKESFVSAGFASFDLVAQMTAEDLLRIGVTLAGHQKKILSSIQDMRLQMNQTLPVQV
Description: Millipore: Percentage of residual kinase activity of EPHB3 at 10uM relative to control. Control inhibitor: PP2 at 30.0uM. Buffer: 8 mM MOPS pH 7.0, 0.2 mM EDTA, 10 mM MnCl2

The cases that follow already have their residual activity on record.
compound | observed_value
Cn1cnc2cc3c(Nc4cccc(Br)c4)ncnc3cc21 | 123%
Cc1nc2cc3nc(-c4cccs4)cnc3cc2n1C | 124%
O=C1c2ccccc2-[n+]2ccc3c([nH]c4ccccc43)c21 | 96%
COc1ccc(C(=O)Nc2sc3c(c2C(N)=O)CCCC3)cc1OC | 122%
CCN(CC)C(=O)c1ccc(Nc2nc(OCC3CCCCC3)c3nc[nH]c3n2)cc1 | 52%

Please supply residual activity for each of the following items, keeping them in order.
1. c1ccc2c(-c3ccncc3)c[nH]c2c1
2. Oc1ccc(-c2nc(-c3ccc(F)cc3)c(-c3ccncc3)[nH]2)cc1
3. Cn1cc(/C=C2\C(=O)Nc3ccc(S(N)(=O)=O)cc32)c2ccccc21
4. Nc1cccc(-c2cc3c(Oc4cccc(O)c4)ncnc3[nH]2)c1
5. Cc1ccc(S(=O)(=O)/C=C/C#N)cc1

["112%", "117%", "117%", "90%", "111%"]
